The reported measurements were obtained from patent US12606561B2.

# MEASURED TARGET: CDK2/Cyclin A (Homo sapiens)
# PROTOCOL DESCRIPTION: Enzymatic assay for CDK2 (LANCE Ultra kinase assay, FRET based)
# CONDITIONS USED: ATP at Km
In this section we review reported IC50 values for a set of compounds.

Here is how some compounds turned out for IC50.
| COMPOUND | MEASURED TARGET | IC50 |
| --- | --- | --- |
| CC(C)c1cnn2c(NCc3ccccc3-c3nccc4cc(NC(=O)/C=C/CN(C)C)ccc34)nc(O[C@@H]3CCCNC3)nc12 | CDK2/Cyclin A (Homo sapiens) | > 1000 nM |
| CC(C)c1cnn2c(NCc3cccc(Oc4cccc(NC(=O)/C=C/CN(C)C)c4)c3)nc(N3CCC(N)CC3)nc12 | CDK2/Cyclin A (Homo sapiens) | 100 to 1000 nM |
| C/C=C/C(=O)Nc1ccc2c(-c3ccccc3CNc3nc(N4CCNCC4)nc4c(C(C)C)cnn34)nccc2c1 | CDK2/Cyclin A (Homo sapiens) | > 1000 nM |
| C=C(F)C(=O)Nc1ccc2c(-c3ccccc3CNc3nc(NC[C@H]4CNCCO4)nc4c(C(C)C)cnn34)nccc2c1 | CDK2/Cyclin A (Homo sapiens) | > 1000 nM |
| CC(C)c1cnn2c(NCc3ccccc3-c3nccc4cc(NC(=O)/C=C/CN(C)C)ccc34)nc(N3CCCC(O)CC3)nc12 (racemic) | CDK2/Cyclin A (Homo sapiens) | > 1000 nM |

Challenge: Quick one: give measured IC50 for CC(C)c1cnn2c(NCc3ccccc3-c3nccc4cc(NC(=O)/C=C/CN(C)C)ccc34)nc(NC[C@H]3CC[C@H](O)CC3)nc12
Response given: > 1000 nM

Challenge: Quick one: give measured IC50 for C=C(F)C(=O)Nc1ccc2c(-c3ccccc3CNc3cc(C)nc4c(C(C)C)cnn34)nccc2c1
Response given: > 1000 nM
